# Assay System: CEGPCR3 receptor (Caenorhabditis elegans)
# Sequence (P90745 1-376): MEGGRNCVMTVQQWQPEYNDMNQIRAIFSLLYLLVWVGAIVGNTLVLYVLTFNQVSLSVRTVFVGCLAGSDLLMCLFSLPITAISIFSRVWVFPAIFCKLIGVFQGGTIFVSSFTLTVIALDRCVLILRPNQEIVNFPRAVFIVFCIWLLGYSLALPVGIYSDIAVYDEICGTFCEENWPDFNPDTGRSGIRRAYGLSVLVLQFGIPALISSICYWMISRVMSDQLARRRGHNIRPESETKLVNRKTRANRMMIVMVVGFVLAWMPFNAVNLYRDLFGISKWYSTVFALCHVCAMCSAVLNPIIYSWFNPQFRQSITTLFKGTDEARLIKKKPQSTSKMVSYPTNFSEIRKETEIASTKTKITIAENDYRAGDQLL
# Test Method Notes: [35S]GTPγS binding assay, membranes of CHO cells transiently transfected with CEGPCR3
# Format: biochemical, C. elegans
# Assay Conditions: EC50 range, Table 7; cells 24 h 37° C. then 24 h 28° C.
Where no end group is shown, it is not given here.
Quantity: EC50

Output measured EC50 for this item: GNSFLRF-NH2 [GNSFLRF-NH2] ~8 µM
